# assayedTarget: 107C RGS8 (C160S) (Homo sapiens, UniProt P57771, C142S)
# Sequence (P57771 74-189 isoform P57771-2 C160S): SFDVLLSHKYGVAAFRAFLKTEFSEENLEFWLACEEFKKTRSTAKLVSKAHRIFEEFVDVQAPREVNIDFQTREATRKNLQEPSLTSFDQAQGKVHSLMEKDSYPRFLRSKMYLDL
# experimentDescription: FCPIA, 107C RGS8/Gαo binding
assayReadout: IC50

>>> reportedvalue("Cc1ccc(-n2sc(=O)n(Cc3ccc(F)cc3)c2=O)cc1 [CCG-50014]")
"46.5 µM"

###

# assayedTarget: RGS8 (Homo sapiens, UniProt P57771)
# experimentDescription: FCPIA, RGS8/Gαo binding
# measurementSetup: IC50 (μM), FCPIA, wildtype RGS8, Fig. 5, three experiments
assayReadout: IC50 (µM)

>>> reportedvalue("Cc1ccc(-n2sc(=O)n(Cc3ccc(F)cc3)c2=O)cc1")
6.1

###

# assayedTarget: 160C RGS8 (C107S) (Homo sapiens, UniProt P57771, C89S)
# experimentDescription: FCPIA, 160C RGS8/Gαo binding
assayReadout: IC50 (nM)

>>> reportedvalue("Cc1ccc(-n2sc(=O)n(Cc3ccc(F)cc3)c2=O)cc1")
710

###

# assayedTarget: RGS7 (Homo sapiens)
# Sequence (P49802 333-448 limits assumed, species assumed): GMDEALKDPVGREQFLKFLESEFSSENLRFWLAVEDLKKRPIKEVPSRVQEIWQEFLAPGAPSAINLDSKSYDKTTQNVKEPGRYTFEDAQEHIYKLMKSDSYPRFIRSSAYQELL
pIC50: −log10 of the molar value.
assayReadout: pIC50

>>> reportedvalue("Cc1ccc(-n2sc(=O)n(Cc3ccc(F)cc3)c2=O)cc1 [CCG-50014]")
"< 3.70"

Sourced from paper PMC3090679
